The entries below are paired with their reported inhibition at 20 µM.
SUBJECT OF TEST: CYP1A2 (Homo sapiens, UniProt P05177)
Sequence (P05177 whole entry): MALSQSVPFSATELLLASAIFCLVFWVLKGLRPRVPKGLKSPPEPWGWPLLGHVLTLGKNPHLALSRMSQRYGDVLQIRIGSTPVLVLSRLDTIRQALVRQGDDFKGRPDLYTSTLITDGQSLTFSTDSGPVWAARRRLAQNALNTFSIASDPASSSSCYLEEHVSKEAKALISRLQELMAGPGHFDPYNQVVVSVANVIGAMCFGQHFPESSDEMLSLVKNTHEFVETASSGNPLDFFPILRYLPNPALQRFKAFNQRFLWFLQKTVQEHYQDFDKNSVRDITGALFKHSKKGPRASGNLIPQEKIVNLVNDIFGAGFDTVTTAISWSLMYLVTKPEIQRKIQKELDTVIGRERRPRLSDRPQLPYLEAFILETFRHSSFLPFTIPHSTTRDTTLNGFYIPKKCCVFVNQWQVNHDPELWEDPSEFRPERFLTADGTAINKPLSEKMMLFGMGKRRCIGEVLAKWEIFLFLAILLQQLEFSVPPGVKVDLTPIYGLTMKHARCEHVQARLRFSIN
ASSAY PROTOCOL: Inhibition of CYP1A2 (unknown origin) at 20 uM
Format: ADME

MOL: C[C@H](NC(=O)c1c(Cc2cccc(C(F)(F)F)c2)sc2c1CCOC2)c1ccc(C(=O)O)cc1
VALUE UNIT: %
inhibition at 20 µM: 60
--
MOL: C[C@H](NC(=O)c1c(Cc2ccc(C(F)(F)F)cc2)sc2c1CCOC2)c1ccc(C(=O)O)cc1
VALUE UNIT: %
inhibition at 20 µM: 69
--
MOL: O=C(O)c1ccc(CNC(=O)c2c(Cc3ccc(F)cc3)sc3c2CCOC3)cc1
VALUE UNIT: %
inhibition at 20 µM: 46
